procedure_summary: Mouse PK analysis (blood/plasma concentration after oral administration)
Type: in vivo
measurement_setup: mouse; mice, 90 mg/kg PO, blood, timepoint 2 h; read-out: Concentration (μM), mean calculated

compound: C[C@@H](C(=O)N(C)c1ccc2cc(-c3n[nH]c4c3CCC(C)(C)C4)[nH]c2c1)N1CCN(CC2CCN(c3cccc4c3n(C)c(=O)n4C3CCC(=O)NC3=O)CC2)CC1 (stereo partly shown)
concentration at 2 h (µM): 0.702

----------
procedure_summary: Mouse PK analysis (blood/plasma concentration after oral administration)
Format: in vivo
measurement_setup: mouse; mice, 90 mg/kg PO, blood, timepoint 1 h; read-out: Concentration (μM), mean calculated

molecule: C[C@@H](C(=O)N(C)c1ccc2cc(-c3n[nH]c4c3CCC(C)(C)C4)[nH]c2c1)N1CCN(CC2CCN(c3cccc4c3n(C)c(=O)n4C3CCC(=O)NC3=O)CC2)CC1 (stereo partly shown)
concentration at 1 h, µM: 0.228

----------
measured_target: ITK (Homo sapiens)
procedure_summary: ITK degradation HiBiT assay
Format: cell-based
Set-up: expressed in transfected cells; host or cells: Molt4 (ATCC CRL-1552), monoclonal clone 1C10, engineered to carry the HiBiT tag
measurement_setup: C-terminal HiBiT-tagged Molt4 cells, 4 hrs
Classify: Fulfilled when DC50 is strictly less than 3 nM; Not fulfilled when DC50 is not.

compound: C[C@@]12Cc3[nH]nc(C(=O)Nc4cnn(C5CCN(CC6(F)CCN(c7ccc(C8CCC(=O)NC8=O)cc7)CC6)CC5)c4)c3C[C@@H]1C2(F)F (some centres unmarked)
measured_target: ITK (Homo sapiens)
assigned_category: Fulfilled
//
compound: C[C@@H](C(=O)N(C)c1ccc2cc(-c3n[nH]c4c3CCC(C)(C)C4)[nH]c2c1)N1CCN(CC2CCN(c3cccc4c3n(C)c(=O)n4C3CCC(=O)NC3=O)CC2)CC1 (some centres unmarked)
measured_target: ITK (Homo sapiens)
assigned_category: Fulfilled
//
compound: CC1(C)CCc2c(-c3cc4ccc(C(=O)N5CCN(CC6CCN(c7ccc(C8CCC(=O)NC8=O)c(F)c7)CC6)CC5)cc4[nH]3)n[nH]c2C1 (centres unmarked)
measured_target: ITK (Homo sapiens)
assigned_category: Not fulfilled
//
compound: Cn1c(=O)n(C2CCC(=O)NC2=O)c2cccc(N3CCC(CN4CCC5(CC4)CCN(c4ccc6cc(-c7n[nH]c8c7CCC(C)(C)C8)[nH]c6c4)C5=O)CC3)c21 (centres unmarked)
measured_target: ITK (Homo sapiens)
assigned_category: Fulfilled
//
compound: CC1(C)CCc2c(-c3cc4ccc(C(=O)N5CCC(CC6CCN(c7ccc(C8CCC(=O)NC8=O)cn7)CC6)CC5)cc4[nH]3)n[nH]c2C1 (centres unmarked)
measured_target: ITK (Homo sapiens)
assigned_category: Not fulfilled

----------
measured_target: ITK (Homo sapiens, UniProt Q08881)
Sequence (Q08881 whole entry): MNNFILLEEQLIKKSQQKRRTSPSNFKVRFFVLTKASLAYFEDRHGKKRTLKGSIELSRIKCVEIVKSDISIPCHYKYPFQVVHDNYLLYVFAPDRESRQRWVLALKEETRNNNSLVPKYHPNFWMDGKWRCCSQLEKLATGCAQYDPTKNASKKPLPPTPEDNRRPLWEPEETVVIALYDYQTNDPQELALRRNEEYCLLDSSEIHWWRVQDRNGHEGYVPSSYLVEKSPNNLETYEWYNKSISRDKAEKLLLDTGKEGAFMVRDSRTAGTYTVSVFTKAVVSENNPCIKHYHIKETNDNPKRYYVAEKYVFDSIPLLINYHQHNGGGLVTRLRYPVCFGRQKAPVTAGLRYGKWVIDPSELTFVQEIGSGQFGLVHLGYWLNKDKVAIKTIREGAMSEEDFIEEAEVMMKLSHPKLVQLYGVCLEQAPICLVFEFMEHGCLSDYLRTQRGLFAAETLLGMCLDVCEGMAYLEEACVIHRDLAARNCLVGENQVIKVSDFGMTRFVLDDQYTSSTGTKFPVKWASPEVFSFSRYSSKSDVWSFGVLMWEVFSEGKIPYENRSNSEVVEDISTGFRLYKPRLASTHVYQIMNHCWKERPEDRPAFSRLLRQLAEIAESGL
procedure_summary: ITK degradation MSD (Meso Scale Discovery) assay
Assay type: cell-based
Parameters: either human Jurkat (Clone E6-1 ATCC TIB-152) or Motl4 (ATCC CRL-1552), were plated; endogenous in cells; host or cells: Jurkat clone E6-1 (ATCC TIB-152) or Molt4 (ATCC CRL-1552)
measurement_setup: Jurkat or Molt4 cells, 4 or 6 hrs
Classify: label 1 when DC50 is strictly less than 2 nM; label 0 when DC50 is not.

compound: C[C@@]12Cc3[nH]nc(C(=O)Nc4cnn([C@H](c5ccccc5)C5CN(CC6CN(c7ccc8c(c7)C(=O)N(C7CCC(=O)NC7=O)C8=O)CCO6)C5)c4)c3C[C@@H]1C2(F)F (stereo partly drawn)
assigned_category: label 1

compound: C[C@@]12Cc3[nH]nc(C(=O)Nc4cnn([C@H](c5ccccc5)C5CN(CCOCCOCCOCCOCCOCCNc6cccc7c6C(=O)N(C6CCC(=O)NC6=O)C7=O)C5)c4)c3C[C@@H]1C2(F)F (stereo partly drawn)
assigned_category: label 0

compound: C[C@@H](C(=O)N(C)c1ccc2cc(-c3n[nH]c4c3CCC(C)(C)C4)[nH]c2c1)N1CCN(CC2CCN(c3ccc4c(c3)n(C)c(=O)n4C3CCC(=O)NC3=O)CC2)CC1 (stereo partly drawn)
assigned_category: label 1

compound: C[C@@]12Cc3[nH]nc(C(=O)Nc4cnn([C@H](c5ccccc5)C5CN(C(=O)C6CCN(c7ccc8c(c7)C(=O)N(C7CCC(=O)NC7=O)C8=O)CC6)C5)c4)c3C[C@@H]1C2(F)F (stereo partly drawn)
assigned_category: label 1

compound: C[C@@H](C(=O)N(C)c1ccc2cc(-c3n[nH]c4c3CCC(C)(C)C4)[nH]c2c1)N1CCN(C[C@H]2CCN(c3ccc4c(c3)C(=O)N(C3CCC(=O)NC3=O)C4=O)C2)CC1 (stereo partly drawn)
assigned_category: label 1

compound: CN(C(=O)CCN1CCN(c2ccc3c(c2)C(=O)N(C2CCC(=O)NC2=O)C3=O)CC1)c1ccc2cc(-c3n[nH]c4c3CCC(C)(C)C4)[nH]c2c1 (stereo not drawn)
assigned_category: label 1

compound: C[C@@]12Cc3[nH]nc(C(=O)Nc4cnn([C@H](c5ccccc5)C5CN(C(=O)C6CN(C7CCN(c8ccc(NC9CCC(=O)NC9=O)cn8)CC7)C6)C5)c4)c3C[C@@H]1C2(F)F (stereo partly drawn)
assigned_category: label 1

compound: CC(C1CN(C(=O)C2CN(C3CCN(c4ccc5c(c4)C(=O)N(C4CCC(=O)NC4=O)C5=O)CC3)C2)C1)n1cc(NC(=O)c2n[nH]c3c2C[C@@H]2C(F)(F)[C@]2(C)C3)cn1 (stereo partly drawn)
assigned_category: label 1

compound: C[C@@]12Cc3[nH]nc(C(=O)Nc4cnn([C@H](c5ccccc5)C5CN(C(=O)CCCCc6cccc7c6CN(C6CCC(=O)NC6=O)C7=O)C5)c4)c3C[C@@H]1C2(F)F (stereo partly drawn)
assigned_category: label 0

compound: C[C@@]12Cc3[nH]nc(C(=O)Nc4cnn([C@H](c5ccccc5)C5CN(C(=O)CCOCCOCCOCCNc6cccc7c6C(=O)N(C6CCC(=O)NC6=O)C7=O)C5)c4)c3C[C@@H]1C2(F)F (stereo partly drawn)
assigned_category: label 0

compound: C[C@@]12Cc3[nH]nc(C(=O)Nc4cnn([C@H](c5ccccc5)C5CN(C(=O)CCOCCOCCOCCOCCOCCNc6cccc7c6C(=O)N(C6CCC(=O)NC6=O)C7=O)C5)c4)c3C[C@@H]1C2(F)F (stereo partly drawn)
assigned_category: label 0

compound: CN(C(=O)C1CN(C2CCN(c3ccc4c(c3)C(=O)N(C3CCC(=O)NC3=O)C4=O)CC2)C1)c1ccc2cc(-c3n[nH]c4c3CCC(C)(C)C4)[nH]c2c1 (stereo not drawn)
assigned_category: label 0

----------
This section presents compounds with their documented Dmax values.
measured_target: ITK (Homo sapiens, UniProt Q08881)
procedure_summary: ITK degradation HiBiT assay
Assay type: cell-based
Set-up: expressed in transfected cells; host or cells: Molt4 (ATCC CRL-1552), monoclonal clone 1C10, engineered to carry the HiBiT tag
measurement_setup: MOLT-4, C-terminal HiBiT-tagged Molt4 cells, 4 hrs
measurement_type: Dmax (%)

compound: CN(C(=O)CCN1CCN(c2ccc3c(c2)C(=O)N(C2CCC(=O)NC2=O)C3=O)CC1)c1ccc2cc(-c3n[nH]c4c3CCC(C)(C)C4)[nH]c2c1 (stereo not drawn) [Compound 2]
endpoint_value: 90
--
compound: C[C@@]12Cc3[nH]nc(C(=O)Nc4cnn(C5CCN(CC6CCN(c7ccc(N8CCC(=O)NC8=O)cc7)C6)CC5)c4)c3C[C@@H]1C2(F)F (stereo partly drawn) [Compound 209]
endpoint_value: 78
--
compound: C[C@@]12Cc3[nH]nc(C(=O)Nc4cnn(CC5CN(C(=O)C6CN(c7ccc8c(c7)C(=O)N(C7CCC(=O)NC7=O)C8=O)C6)C5)c4)c3C[C@@H]1C2(F)F (stereo partly drawn) [Compound 43]
endpoint_value: 93
--
compound: C[C@@]12Cc3[nH]nc(C(=O)Nc4cnn(C5CCN(CC6(F)CCN(c7ccc(C8CCC(=O)NC8=O)cc7)CC6)CC5)c4)c3C[C@@H]1C2(F)F (stereo partly drawn) [Compound 97]
endpoint_value: 88
--
compound: C[C@@]12Cc3[nH]nc(C(=O)Nc4cnn([C@@H]5CCN(CC6CCN(c7ccc([C@H]8CCC(=O)NC8=O)cc7)CC6)C[C@H]5F)c4)c3C[C@@H]1C2(F)F (single isomer, unassigned) [Compound 96]
endpoint_value: 89
--
compound: C[C@@H]1CN(c2ccc(C3CCC(=O)NC3=O)cn2)CCN1CC1CCN(C(=O)c2ccc3cc(-c4n[nH]c5c4CCC(C)(C)C5)[nH]c3c2)CC1 (stereo partly drawn) [Compound 189]
endpoint_value: 84
--
compound: C[C@@]12Cc3[nH]nc(C(=O)Nc4cnn(C5CCN(C(=O)[C@H]6CC[C@H](Cn7ncc8cc(C9CCC(=O)NC9=O)ccc87)CC6)CC5)c4)c3C[C@@H]1C2(F)F (mixture of isomers) [Compound 164]
endpoint_value: 86
--
compound: CC1(C)CCc2c(-c3cc4ccc(C(=O)N5CCN(CC6CCN(c7ccc(C8CCC(=O)NC8=O)c(F)c7)CC6)CC5)cc4[nH]3)n[nH]c2C1 (stereo not drawn) [Compound 221]
endpoint_value: 84
--
compound: C[C@@]12Cc3[nH]nc(C(=O)Nc4cnn([C@@H]5CCN(C[C@H]6CCN(c7ccc(C8CCC(=O)NC8=O)cc7)C6)C[C@H]5F)c4)c3C[C@@H]1C2(F)F (stereo partly drawn) [Compound 99]
endpoint_value: 85
